The entries below are paired with their reported IC50.
Molecular target: Mitogen-activated protein kinase 14 (Homo sapiens, UniProt Q16539)
Sequence (Q16539 whole entry): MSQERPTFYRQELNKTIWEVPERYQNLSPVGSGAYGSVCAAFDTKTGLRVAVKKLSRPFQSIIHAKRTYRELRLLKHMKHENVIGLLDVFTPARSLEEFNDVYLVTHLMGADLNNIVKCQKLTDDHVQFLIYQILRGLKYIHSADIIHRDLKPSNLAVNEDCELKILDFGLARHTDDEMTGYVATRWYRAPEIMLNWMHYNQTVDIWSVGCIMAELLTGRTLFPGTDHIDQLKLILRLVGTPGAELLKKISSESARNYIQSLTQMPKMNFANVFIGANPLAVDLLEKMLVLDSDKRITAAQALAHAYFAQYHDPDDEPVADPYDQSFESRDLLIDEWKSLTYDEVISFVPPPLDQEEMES
Test: Inhibition of recombinant human p38-alpha expressed in Escherichia coli using ATF2 as substrate by radioisotope-based assay
measured_metric: IC50 (µM)

{"smiles_text": "Cc1cccc(-c2nn(CC(=S)Nc3cccc(C#N)c3)cc2-c2ccc3ncnn3c2)n1", "relation": "=", "recorded_value": 5.11}
{"smiles_text": "Cc1cccc(-c2nn(CC(=S)Nc3ccccc3F)cc2-c2ccc3ncnn3c2)n1", "relation": "=", "recorded_value": 5.21}
{"smiles_text": "Cc1cccc(-c2[nH]c(CNC(=O)c3ccccc3)nc2-c2ccc3ncnn3c2)n1", "relation": ">", "recorded_value": 10}
{"smiles_text": "Cc1cccc(-c2[nH]c(CNC(=S)c3cccc(C(N)=O)c3)nc2-c2ccc3ncnn3c2)n1", "relation": "=", "recorded_value": 2.83}
{"smiles_text": "Cc1cccc(-c2nn(CC(=O)Nc3cccc(C#N)c3)cc2-c2ccc3ncnn3c2)n1", "relation": ">", "recorded_value": 10}
{"smiles_text": "Cc1cccc(-c2[nH]c(CNC(=S)c3ccccc3)nc2-c2ccc3ncnn3c2)n1", "relation": "=", "recorded_value": 3.77}
{"smiles_text": "Cc1cccc(-c2[nH]c(CNC(=O)c3cccc(C#N)c3)nc2-c2ccc3ncnn3c2)n1", "relation": ">", "recorded_value": 10}
{"smiles_text": "Cc1cccc(-c2nn(CC(=O)Nc3ccccc3)cc2-c2ccc3ncnn3c2)n1", "relation": ">", "recorded_value": 10}
{"smiles_text": "Cc1cccc(-c2[nH]c(CNC(=O)c3ccccc3F)nc2-c2ccc3ncnn3c2)n1", "relation": ">", "recorded_value": 10}
{"smiles_text": "Cc1cccc(-c2[nH]c(CNC(=O)c3cccc(C(N)=O)c3)nc2-c2ccc3ncnn3c2)n1", "relation": ">", "recorded_value": 10}
{"smiles_text": "Cc1cccc(-c2nn(CC(=O)Nc3ccccc3F)cc2-c2ccc3ncnn3c2)n1", "relation": ">", "recorded_value": 10}
{"smiles_text": "Cc1cccc(-c2[nH]c(CNC(=S)c3cccc(C#N)c3)nc2-c2ccc3ncnn3c2)n1", "relation": "=", "recorded_value": 1.49}
{"smiles_text": "Cc1cccc(-c2nn(CC(=O)Nc3cccc(C(N)=O)c3)cc2-c2ccc3ncnn3c2)n1", "relation": ">", "recorded_value": 10}
{"smiles_text": "Cc1cccc(-c2[nH]c(CNC(=S)c3ccccc3F)nc2-c2ccc3ncnn3c2)n1", "relation": "=", "recorded_value": 1.05}

###

Biological target: UniProt:P36897
Sequence (P36897 whole entry, the tested form may be a part): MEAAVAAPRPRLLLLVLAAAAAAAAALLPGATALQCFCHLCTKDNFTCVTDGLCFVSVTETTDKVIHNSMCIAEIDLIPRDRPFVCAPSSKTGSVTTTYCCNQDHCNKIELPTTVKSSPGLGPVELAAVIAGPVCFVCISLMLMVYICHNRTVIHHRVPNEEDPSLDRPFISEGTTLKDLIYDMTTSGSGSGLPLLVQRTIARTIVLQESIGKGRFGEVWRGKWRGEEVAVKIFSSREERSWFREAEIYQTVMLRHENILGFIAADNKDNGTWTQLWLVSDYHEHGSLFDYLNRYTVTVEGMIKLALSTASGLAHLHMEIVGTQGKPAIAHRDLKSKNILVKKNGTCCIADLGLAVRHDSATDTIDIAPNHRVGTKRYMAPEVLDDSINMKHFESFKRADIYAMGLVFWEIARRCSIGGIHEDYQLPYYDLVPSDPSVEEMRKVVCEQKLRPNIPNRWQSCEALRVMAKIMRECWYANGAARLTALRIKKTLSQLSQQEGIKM
Assay: Inhibition of GST-fused recombinant human ALK5 expressed in baculovirus-infected insect Sf9 cells using casein as substrate by radioisotope-based assay
pIC50: −log10 of the molar value.

{"smiles_text": "Cc1cccc(-c2nn(CC(=O)Nc3cccc(C#N)c3)cc2-c2ccc3ncnn3c2)n1", "pIC50": 7.57}
{"smiles_text": "Cc1cccc(-c2[nH]c(CNC(=O)c3cccc(C(N)=O)c3)nc2-c2ccc3ncnn3c2)n1", "pIC50": 6.97}
{"smiles_text": "Cc1cccc(-c2[nH]c(CNC(=O)c3ccccc3F)nc2-c2ccc3ncnn3c2)n1", "pIC50": 7.43}
{"smiles_text": "Cc1cccc(-c2[nH]c(CNC(=S)c3cccc(C#N)c3)nc2-c2ccc3ncnn3c2)n1", "pIC50": 7.44}
{"smiles_text": "Cc1cccc(-c2nn(CC(=S)Nc3cccc(C#N)c3)cc2-c2ccc3ncnn3c2)n1", "pIC50": 7.74}

Source: ChEMBL document CHEMBL3259570
